Each recorded value in this set is attributed to patent US20220017589A1.

Target: human GLP-1 receptor (human, UniProt P43220 24-463)
Assay: cell-based or functional assay
outcome.measure: GLP-1 activity (EC50, pM, 1% HSA) (pM)
Record the value in pM, omitting the unit from your answer.

[[record]]
binder = "MLC127 (ligand, Moiety B (HOOC-(CH2)16-CO-gGlu-2XADO-EDA-CO-CH2) on 26C of GLP-1 (20C of fusion polypeptide)) HGEGTFTSDVSSYLEEQAACEFIAWLVRGGGGAQPGAQPGAQPGAQPGAQPGAQPGAQPGAQPGQEPGAQPGQEPGAQPGQEPGAQPGQEPGAQPGQEPGAQPGQEPGAQPARQGDHCPLGPGRCCRLHTVRASLEDLGWADWVLSPREVQVTMCIGACPSQFRAANLHAQIKTSLHRLKPDTVPAPCCVPASYNPMVLIQKTDTGVSLQTYDDLLAKDCHCI"
outcome_measure = "GLP-1 activity (EC50, pM, 1% HSA)"
unit_label = "pM"
assay_result = 872


Note: attention shifts to another entry.
Query MLC089 (ligand, Moiety B (HOOC-(CH2)16-CO-gGlu-2XADO-EDA-CO-CH2) on 39C of Linker (70C of fusion polypeptide)) HGEGTFTSDVSSYLEEQAAKEFIAWLVRGGGGAQPGAQPGAQPGAQPGAQPGAQPGAQPGAQPGQEPGQCPGQEPGAQPGQEPGAQPGQEPGAQPGQEPGAQPGQEPGAQPARQGDHCPLGPGRCCRLHTVRASLEDLGWADWVLSPREVQVTMCIGACPSQFRAANLHAQIKTSLHRLKPDTVPAPCCVPASYNPMVLIQKTDTGVSLQTYDDLLAKDCHCI yields GLP-1 activity (EC50, pM, 1% HSA) of 24.4
